apparent KD of MS2 coat protein overview
# Tested on: MS2 coat protein
# protocol_notes: apparent KD of MS2 coat protein; designed switch direction (-1 OFF switch, 1 ON switch): -1; higher = weaker reporter binding
# measurement_parameters: input ligand: none
metric: apparent KD of MS2 coat protein (nM)

- UAUUAGCAAGCGAGAUCCCACAUGAGGAUCACCCAUGUGCUCGUCUUAUAAAGUACUGUGACGAUAGUCACGGUACA [Mat - Sensor, turn-off var - Eli Mod - D8] (Eterna round: R97, puzzle: Sensor, turn-off variant 1): 15.6
- CAUAGCCGUGUAAGGAUAUCCGAUCCACGGGACAAGGAGAAGGUACAUGAGGAUCACCCAUGUAAGGGUUCCUA [Vecequve] (Eterna round: R97, puzzle: Brourd's mod of Exclusion 4): 21.7
- UCACAGUUAGGAUAUGCGAGUUUGGUGUGCAUCCUAGACAUACAUGAGGAUCACCCAUGUAGAAGGAAUAGUGG [Eternabot (L2) Solution 80] (Eterna round: R97, puzzle: Exclusion 2): 27.1
- UUUAUAAUAAGAUCAAUUAAUUAACAUGAGGAUCACCCAUGUGAGGAUAUCAGCUCGAUUAGAGCUGAGAAGGCACAAUAUAAG [ExNG3/17-B1] (Eterna round: R96, puzzle: Exclusion NG 3): 43.3
- AAAUUGCUAGAGGAUAUCGGAUAGGAUCUAUCGCGAGAAGGCUGGACAUGAGGAUCACCCAUGUUCUGUUGGGA [EX6 #29] (Eterna round: R97, puzzle: Exclusion 6): 25.2
- ACAAGCUUUUUCGUGGGUGACAUGAGGAUCACCCAUGUUUGCCACGUCUUGUGGGCCCGGGCCCGCGGCCCGGGCCC [-44.6, -64.9, A 13%] (Eterna round: R97, puzzle: Sensor, turn-off variant 1): 47.1
- CCAAGAAUAGGAUAUACACCAUGUCAGCUUCUAUACAUCGCACAUGAGGAUCACCCAUGUAGAAGGGUUCUCUC [Exclusion-2-#4] (Eterna round: R97, puzzle: Exclusion 2): 282
- CAAAAUGUAUAAGGAUAUCUCGCCAAUAAAGGCAGAGAAGGUAUACCCACUUGAGGAUCACCCAAGUCACGUGUGCCUGGUGGA [Mutated MS2 EX1.25] (Eterna round: R96, puzzle: Exclusion NG 1): 11
- GUACUGACAGGAUAUACAUGAGGAUCACCCAUGUGCCCUUAAUGAUGCAAAGCAUCAAGUAGAAGGGUCUGUAC [Omei Ex3 Model Bachelor's Dilema v22] (Eterna round: R97, puzzle: Exclusion 3): 32.8
- AAUGAUUGACGAGGAUAUUGUGGUAGAUCACGACGAGAAGGCGUUUGUCACAUGAGGAUCACCCAUGUGAGCCUUGUGGAUAGA [Ex NG1 #75] (Eterna round: R96, puzzle: Exclusion NG 1): 30.9
- UUCGUUUUAGGAUAUACAGGGUUGGUCGACAACUCACUGUCACAUGAGGAUCACCCAUGUAGAAGGGAGAGAAG [Eternabot (L1) Solution 49] (Eterna round: R97, puzzle: Exclusion 2): 198
- GUACUGACAGGAUAUACAUGAGGAUCACCCAUGUGCCUUAUCGCUACAAAAGUAGCGAGUAGAAGGGUCUGUAC [Omei Ex3 Model Bachelor's Dilema v18] (Eterna round: R97, puzzle: Exclusion 3): 16.6
- UGUAACCUGGUAAGGAUAUAGUUGCAAGGAGUCAACUAGAAGGUACAUGAGGAUCACCCAUGUCUACGGAUAUC [Eternabot (L2) Solution 91] (Eterna round: R97, puzzle: Brourd's mod of Exclusion 4): 17.3
- AGAUGCUCGAGUCGACAUGAGGAUCACCCAUGUACAGUUAGUGAGGAUAUCUGAGACACAUAGUAGGAGAAGGCGCGAACAUGA [Ex NG3 #13] (Eterna round: R96, puzzle: Exclusion NG 3): 60
- UCCUGACAUGAGGAUCACCCAUGUAAGGAUAUUAAAACGACUGAACAACUCAGCGGUAUAAGAAGGUACAUGUA [EX1 A.10] (Eterna round: R97, puzzle: Exclusion 1): 14.4
- CAUAGUUACACAGGAUAUAGUACAUGAGGAUCACCCAUGUAAUAAAUGAGAAUUUCGAAUGUAUACUAGAAGGGUGAAAUCUAC [Ostracism 54 - Jieux - Exclusion NG 2] (Eterna round: R96, puzzle: Exclusion NG 2): 171
- CUAAAUCAUGUAGGAUAUGCGUGGCGAAGCUAUGCAGAAGGACAUGAGGAUCACCCAUGUGCUUCCGUCUGAGUACAGACGGAA [Mat - Exclusion NG 1 - Mod of JL - D25] (Eterna round: R96, puzzle: Exclusion NG 1): 232
- UUACGUUUAGAGGAUAUAUUAAGGAAGGUAACGAUAGAAGGCUAGACAUGAGGAUCACCCAUGUAUAUAGGGAU [JR_Ex6_Sub071] (Eterna round: R97, puzzle: Exclusion 6): 54

* * *

# Tested on: K4 kissing-loop RNA reporter;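 also: bound reporter read as fluorescence of individual clusters on recovered sequencing chips by microscopy, with normalized cluster intensities fitted with a binding model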
# protocol_notes: apparent KD of K4 kissing-loop reporter; higher = weaker reporter binding
# measurement_parameters: Eterna round: R107; input ligand: tryptophan 2.4 mM
Parameter apparent KD of K4 kissing-loop reporter: see the listing below.
metric: apparent KD of K4 kissing-loop reporter

• CACGGUUAUACGGCCGCCACUGAUUGCGUUGCAGUGAUGUUGCACGCGUCCGACUACACCUCAUUCAGGACCGGGUAGACAUGCA [theeternabot_exclusion_KL_Trp_B_11] = 246 nM
• UAUCUUUGCUGAAGGAGCGAGCAUGUUGGAGUGAUGUUCCGAGCGAGUGAUGUUCGCAUAGCUCAGGUAGGUCGCAGUGGGAGGA [Same State Arginie B GF 16] = 135 nM
• UUCGAUCAGUGAUGUUGAUCAAUAGUCGAAGGAGCGCUAUAGAUAGCAGGUAGGUCGCGGCUACAGGGUGUUAAGACACCCAGAA [#13 K4 Arginine A Same State] = 488 nM
• CGGAUGUAGUGAUGUUAUAUUAGAUGUAGACGAGGACCGGUACGGCCGCCACUCGUGAUGGCUGCUAGCACGUUUCGAUGUUUGC [ExTryptoA.Cq] = 434 nM
• GUCUCCGUCGAUGAUACCAGUCGAUGUACGUCAGGUACCCUUUGAGUGAUGUUCAGAUUAGACCCUUGGCAGCAUAUCGAGGCUC [theeternabot_exclusion_KL_Theo_B_24] = 303 nM

* * *

# Tested on: MS2 coat protein
# protocol_notes: apparent KD of MS2 coat protein; higher = weaker reporter binding
# measurement_parameters: Eterna round: R107; input ligand: none
metric: apparent KD of MS2 coat protein (nM)

* AGCCCGUGAGCGGCCGCCACUGGAGGCUUUGCGCGACAUGAGGAUCACCCAUGUGUGCCCGGCGUUAGGACCGGGUUCGCGUGGU [#1 Same State - Tryptophan B Attempt #18 (HarryS)] | 38.5
* UUGGGUUUGUGAAGGAGCGGGAAAGUUUUAUAGUGGAUCCUAACAUGAGGAUCACCCAUGUCCCAGGUAGGUCGCGCGGGUUUGG [12.R] | 182
* UGUCGAAACUGAAGGAGCGAGAUGACAACAUUGGGUCUAACAUGAGGAUCACCCAUGUAAUCUCAGGUAGGUCGCAGUGACAAAA [Exclusion Arginine B GF 15] | 94.7
* ACUAGGCUCGGAAACGAGCCUAGGACAGAAGGAGCGUGGAUUAACACAGGUAGGUCGCUGACAUGAGGAUCACCCAUGUAUUAUU [SSAA #2] | 24.9
* GGGUCCGUCGGAAGGAGCGACAUGAGGAUCACCCAUGUCUCCCGUUAUGGGAGUUCUUUAGGUCAGGUAGGUCGCCGGCGGGUCC [#1 Exclusion - Arginine B Attempt #13 (Inspired by Omei)] | 141
* GCGUCGGUCGGAAGGAGCGACAUGAGGAUCACCCAUGUCUCCCGUUAUGGGAGUUCCUUAGGUCAGGUAGGUCGCCGACGGACGC [#1 Exclusion - Arginine B Attempt #19 (Inspired by Omei)] | 170
* AAAUAAAUACAUGAGGAUCACCCAUGUGAAGGAGCGCCCGUUAGGGCAGGUAGGUCGCACAUGAAAGGGAAGCGAAAGAAAUAAU [ArgEX 15 #OpenEnded] | 20.2
* AAAAUAUACGGAAGGAGCGUGUAAGAUUAAGAACAUGAGGAUCACCCAUGUUUUAAGGGAACACAGGUAGGUCGCCGUAUAUAAA [11.N] | 11.9
* CAAUUUAGAAAACUAAAUUGAGUGGGUGAACGAGGACCGGUACGGCCGCCACUCGGACAUGAGGAUCACCCAUGUCCAUGUGAAA [AstrosExyTryA#23] | 14.8
* UUCGCUGAGGGAAGGAGCGUGAAGACAUGAGGAUCACCCAUGUAGAGGCGCCGAAGGCGUUCGCAGGUAGGUCGCCCUCAGUGAG [#1 Same State - Arginine B Attempt #23 (HarryS)] | 16.4
* UGACGAUACCUGGAUACCAGCGACAUGAGGAUCACCCAUGUAUGAGGAUCAGCCAUGAUAUGCCCUUGGCAGCCACGAAAGUCUU [VUVMULLIN] | 15.8
* CGUUGGUGUGGAGACAUAUUGAUGACUGAAGGAGCGGGAAUAAACCCAGGUAGGUCGCAGAGAUCCACAUGAGGAUCACCCAUGU [!0.R] | 73.1
* GAGACGUCGGGAAGGAGCGCAUCAAAACCACACAUGAGGAUCACCCAUGUAUAAAUAUGCAUGCAGGUAGGUCGCCCGGUGUCCA [SS-ArgB16] | 27.1
* GGACUAACCAGAAGGAGCGACGCAAGCAGAAACUGCAAUCCUCCGCACGAGGAUCACCCGUGUCAGGUAGGUCGCUGGUUAGUCG [ArgBX 28] | 28.2
* AGAUGUAGCGGAAGGAGCGACUUGAGGAUCACCCAAGUCUCCCGUUGUGGGAGUUCCUUAGGUCAGGUAGGUCGCCGUUACGUCA [Omei Arg B SS B v3] | 145
* UGUAUGGACUGAAGGAGCGCCUCAAAAUAACAUGAGGAUCACCCAUGUAGGCGAAAGCCUGGGCAGGUAGGUCGCAGUCCAUACU [ArgBX 2 #StaticStem #MS2Late] | 12.9
* GUAAUGAUAAGAAGGAGCGUCGAAAAUGGGUAAACAUGAGGAUCACCCAUGUAAAGGGAACGACAGGUAGGUCGCUUAUUAUUAC [AstromonsSSArgB#21] | 207
* CCGGGCUGUGGAGACAUAGCCCGGACUGAAGGAGCGGGAAUAAACCCAGGUAGGUCGCAGAGAUCCACAUGAGGAUCACCCAUGU [!0.S] | 34
* AAAUAAAUACAUGAGGAUCACCCAUGUGAAGGAGCGCCCGUUAGGGCAGGUAGGUCGCACAUGAAUAACUCCGCGCGAAAGCGCA [MAT - Exclusion Arginine A - Mod of Eli - D10] | 38.7
* GCGAUGGAGCGAAGGAGCGGCUAAAUGUAACACAUGAGGAUCACCCAUGUUCCAAGAUGUGGCCAGGUAGGUCGCGCUCCAUCGC [SSAB NP+V+V2 #15] | 175
* UGUAUGUGAUCUGAUACCAGAGUGAAUAAACCUGAGGAUCACCCUGGUACGCGAAAGCGACUCCCUUGGCAGCAGAUCGCAUACU | 163
* AGCAAGUUCGGAAGGAGCGGUACAUGAGGAUCACCCAUGUAUUCAAUCGUGAUCGGAACGUGCCAGGUAGGUCGCCGAAUGCGUC [XArg-B1] | 13.1
* AUGCGGUGCGGAAGGAGCGAGUUUGCCUAUUACAUGAGGAUCACCCAUGUGGGUAAUGGGACUCAGGUAGGUCGCCGUUGUCGCA [Same State Arginine B GF 28] | 57.5
